Give log10 Kd for every item shown.
Test target: T1, full-length human Tau (Tau441; 2N4R), recombinant (human, UniProt P10636 1-758)
T1 construct: made in E. coli, His6-Smt3 tag removed; biotinylated through amines for Octet and phage work; also called r-Tau; recombinant Tau
T1 sequence (P10636 other isoform, or with tags, fused parts or gaps limits assumed): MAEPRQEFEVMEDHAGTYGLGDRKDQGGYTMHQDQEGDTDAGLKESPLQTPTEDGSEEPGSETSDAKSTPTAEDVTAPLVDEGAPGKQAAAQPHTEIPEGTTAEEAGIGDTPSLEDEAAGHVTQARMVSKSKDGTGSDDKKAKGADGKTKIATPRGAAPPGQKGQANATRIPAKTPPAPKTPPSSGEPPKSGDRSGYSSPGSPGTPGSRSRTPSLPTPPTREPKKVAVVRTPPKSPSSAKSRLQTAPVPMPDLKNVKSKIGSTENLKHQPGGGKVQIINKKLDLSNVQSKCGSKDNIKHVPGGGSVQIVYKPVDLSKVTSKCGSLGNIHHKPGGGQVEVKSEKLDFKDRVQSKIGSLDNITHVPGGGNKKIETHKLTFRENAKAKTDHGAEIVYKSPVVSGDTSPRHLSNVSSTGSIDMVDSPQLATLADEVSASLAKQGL
Measurement notes: SPR Biacore
Units before log transform: nM; reported quantity: Kd; transform: log10.

Incoming: Fill in: log10 Kd of Clone with L1_3 (antibody, V domains shown, IgG based on hu1C7.v2) VH: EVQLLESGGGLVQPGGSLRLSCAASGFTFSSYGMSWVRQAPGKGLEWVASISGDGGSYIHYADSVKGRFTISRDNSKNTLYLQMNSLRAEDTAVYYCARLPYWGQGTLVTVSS VL: DIVMTQSPDSLAVSLGERATINCKSSQSLHRSGTQKDYLVWYQQKPGQPPKLLIYWASTRESGVPDRFSGSGSGTDFTLTISSLQAEDVAVYYCQQYNSYPLTFGQGTKVEIK is ___
Outgoing: -0.96

Incoming: What do you get for Clone with L1_3-10 (antibody, V domains shown, based on hu1C7.v2) VH: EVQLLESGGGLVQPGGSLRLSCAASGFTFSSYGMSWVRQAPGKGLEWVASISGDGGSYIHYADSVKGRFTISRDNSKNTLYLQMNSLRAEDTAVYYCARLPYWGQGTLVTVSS VL: DIVMTQSPDSLAVSLGERATINCKSSQSLHRSGTQKNYLVWYQQKPGQPPKLLIYWASTRESGVPDRFSGSGSGTDFTLTISSLQAEDVAVYYCQQYNSYPLTFGQGTKVEIK ?
Outgoing: -0.80

Incoming: Thanks! And Clone with L1_3-11 (antibody, V domains shown, based on hu1C7.v2) VH: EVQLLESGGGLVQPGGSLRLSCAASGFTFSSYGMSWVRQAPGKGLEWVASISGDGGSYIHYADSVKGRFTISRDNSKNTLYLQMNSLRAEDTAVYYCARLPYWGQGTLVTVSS VL: DIVMTQSPDSLAVSLGERATINCKSSQSLHRSGTQKDYLAWYQQKPGQPPKLLIYWASTRESGVPDRFSGSGSGTDFTLTISSLQAEDVAVYYCQQYNSYPLTFGQGTKVEIK ?
Outgoing: -0.64

Incoming: Same question for Clone with L1_3-1 (antibody, V domains shown, based on hu1C7.v2) VH: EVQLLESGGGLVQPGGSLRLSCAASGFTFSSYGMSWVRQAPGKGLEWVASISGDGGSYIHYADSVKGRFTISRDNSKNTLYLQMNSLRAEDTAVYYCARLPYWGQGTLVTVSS VL: DIVMTQSPDSLAVSLGERATINCKSSQSLVRSGTQKDYLVWYQQKPGQPPKLLIYWASTRESGVPDRFSGSGSGTDFTLTISSLQAEDVAVYYCQQYNSYPLTFGQGTKVEIK please.
Outgoing: -0.68

Incoming: Now consider Clone with L1_3-7 (antibody, V domains shown, based on hu1C7.v2) VH: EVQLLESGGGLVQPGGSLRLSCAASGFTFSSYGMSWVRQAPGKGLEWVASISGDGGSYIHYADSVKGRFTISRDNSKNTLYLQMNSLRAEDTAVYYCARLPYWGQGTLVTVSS VL: DIVMTQSPDSLAVSLGERATINCKSSQSLHKSGTQKDYLVWYQQKPGQPPKLLIYWASTRESGVPDRFSGSGSGTDFTLTISSLQAEDVAVYYCQQYNSYPLTFGQGTKVEIK and answer again.
Outgoing: -0.56

Incoming: Do the same for Clone with H2_2 (antibody, V domains shown, based on hu1C7.v2) VH: EVQLLESGGGLVQPGGSLRLSCAASGFTFSSYGMSWVRQAPGKGLEWVASISGTGGSYIHYADSVKGRFTISRDNSKNTLYLQMNSLRAEDTAVYYCARLPYWGQGTLVTVSS VL: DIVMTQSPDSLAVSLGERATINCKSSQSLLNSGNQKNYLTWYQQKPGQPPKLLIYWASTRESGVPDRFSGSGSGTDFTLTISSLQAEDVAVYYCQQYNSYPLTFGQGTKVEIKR please
Outgoing: 0.96
